Molecular target: OAT1 (Solute carrier family 22 member 6) (Homo sapiens, UniProt Q4U2R8)
Sequence (Q4U2R8 whole entry): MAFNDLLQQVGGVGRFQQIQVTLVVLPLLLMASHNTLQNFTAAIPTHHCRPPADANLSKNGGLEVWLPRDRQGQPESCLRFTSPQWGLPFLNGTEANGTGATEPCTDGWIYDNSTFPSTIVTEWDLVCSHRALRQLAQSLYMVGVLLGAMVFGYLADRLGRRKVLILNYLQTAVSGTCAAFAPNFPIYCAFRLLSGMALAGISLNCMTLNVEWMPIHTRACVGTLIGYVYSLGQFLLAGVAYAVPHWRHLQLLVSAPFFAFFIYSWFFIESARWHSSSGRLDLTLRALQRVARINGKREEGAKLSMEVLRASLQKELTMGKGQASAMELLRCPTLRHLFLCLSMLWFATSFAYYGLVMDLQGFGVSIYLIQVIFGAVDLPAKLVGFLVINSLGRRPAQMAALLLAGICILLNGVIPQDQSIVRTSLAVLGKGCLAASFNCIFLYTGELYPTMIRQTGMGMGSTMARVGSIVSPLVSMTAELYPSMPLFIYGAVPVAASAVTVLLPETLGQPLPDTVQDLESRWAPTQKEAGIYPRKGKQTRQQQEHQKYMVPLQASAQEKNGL
Experiment: TP_TRANSPORTER: inhibition of MTX uptake (MTX: 1 uM, Phenylbutazone: 1000 uM) in OAT1-expressing S2 cells
Type: functional, cell-based
Set-up: scale not given: the % may be the effect or the level left
Conditions: probe MTX, read-out: Activity
endpoint.name: activity at 1000 µM (%)
Your answer should be a plain number; it is taken to be in %.

Qu. # lookup: activity at 1000 µM of CCCCC1C(=O)N(c2ccccc2)N(c2ccccc2)C1=O [PHENYLBUTAZONE]
Ans. 30
